assay_comment: Inhibition of p38 assessed as rate of ATF-2 phosphorylation at 10 uM by immunosorbent non-radioactive enzyme assay
Think of 40% as a floor: if inhibition stands on it or above, it is 1.0; beneath it, 0.0.

entry_smiles	discrete_label
Nc1ccccc1Nc1cccc2c1Oc1ccccc1CC2=O	0.0
O=C1Cc2ccccc2Cc2cc(-c3ccccc3)ccc21	1.0
O=C1Cc2ccccc2Cc2c(Nc3ccc(F)cc3F)cccc21	0.0
Nc1ccccc1Nc1ccc2c(c1)C(=O)Cc1ccccc1O2	0.0
O=C1Cc2ccccc2Cc2c(Nc3ccccc3)cccc21	1.0
Nc1cc(F)ccc1Nc1ccc2c(c1)C(=O)Cc1ccccc1O2	1.0
Nc1ccc(Nc2ccc3c(c2)Cc2ccccc2CC3=O)cc1	0.0
O=C1Cc2ccccc2Cc2cc(NCc3ccccc3)ccc21	0.0
O=C1Cc2cc(Nc3ccccc3)ccc2Cc2ccccc21	1.0
O=C1Cc2ccccc2Oc2c(Nc3ccccc3)cccc21	0.0
O=C1Cc2ccccc2Oc2c(Nc3ccc(F)cc3F)cccc21	0.0
O=C1Cc2ccccc2Cc2ccc(Nc3ccc(F)cc3F)cc21	1.0
O=C1Cc2ccccc2Oc2ccc(Nc3ccccc3)cc21	0.0

---

target_system: Serine/threonine-protein kinase N1 (Homo sapiens)
assay_comment: Inhibition of PRK1 at 10 uM
Active and inactive are the calls of the source. The calls are words filed in the database; no cut-off is given here.

entry_smiles	inhibition
Nc1ccccc1Nc1ccc2c(c1)Oc1ccccc1NC2=O	inactive
Nc1cc(F)ccc1Nc1ccc2c(c1)CC(=O)c1ccccc1C2	inactive
O=C1Cc2ccccc2Cc2cc(Nc3ccccc3)ccc21	inactive
O=C1Cc2ccc(Nc3ccccc3)cc2Cc2ccccc21	inactive
Nc1ccccc1Nc1ccc2c(c1)CC(=O)c1ccccc1C2	inactive
Nc1cc(F)ccc1Nc1ccc2c(c1)Oc1ccccc1NC2=O	inactive

---

target_system: Insulin-like growth factor 1 receptor (Homo sapiens) (UniProt P08069)
Sequence (P08069 31-736 limits assumed): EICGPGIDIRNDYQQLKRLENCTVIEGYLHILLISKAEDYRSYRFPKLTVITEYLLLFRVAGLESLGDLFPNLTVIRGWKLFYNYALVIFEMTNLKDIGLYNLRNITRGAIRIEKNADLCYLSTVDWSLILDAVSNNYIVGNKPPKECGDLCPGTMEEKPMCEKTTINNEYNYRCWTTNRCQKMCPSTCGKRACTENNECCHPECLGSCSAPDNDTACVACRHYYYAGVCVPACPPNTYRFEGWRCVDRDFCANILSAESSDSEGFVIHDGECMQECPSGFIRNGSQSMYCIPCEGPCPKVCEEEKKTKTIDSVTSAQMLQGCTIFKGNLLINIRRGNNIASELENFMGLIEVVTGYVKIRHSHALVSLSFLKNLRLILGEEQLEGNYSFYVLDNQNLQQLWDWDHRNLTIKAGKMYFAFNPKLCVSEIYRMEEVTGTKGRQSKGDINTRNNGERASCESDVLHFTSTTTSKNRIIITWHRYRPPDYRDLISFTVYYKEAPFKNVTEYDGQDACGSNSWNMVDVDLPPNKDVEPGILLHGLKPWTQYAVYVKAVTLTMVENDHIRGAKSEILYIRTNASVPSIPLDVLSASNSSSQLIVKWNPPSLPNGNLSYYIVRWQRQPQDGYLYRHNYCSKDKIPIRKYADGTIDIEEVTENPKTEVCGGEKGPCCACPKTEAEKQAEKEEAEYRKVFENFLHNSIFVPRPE
Sequence (P08069 741-1367 limits assumed): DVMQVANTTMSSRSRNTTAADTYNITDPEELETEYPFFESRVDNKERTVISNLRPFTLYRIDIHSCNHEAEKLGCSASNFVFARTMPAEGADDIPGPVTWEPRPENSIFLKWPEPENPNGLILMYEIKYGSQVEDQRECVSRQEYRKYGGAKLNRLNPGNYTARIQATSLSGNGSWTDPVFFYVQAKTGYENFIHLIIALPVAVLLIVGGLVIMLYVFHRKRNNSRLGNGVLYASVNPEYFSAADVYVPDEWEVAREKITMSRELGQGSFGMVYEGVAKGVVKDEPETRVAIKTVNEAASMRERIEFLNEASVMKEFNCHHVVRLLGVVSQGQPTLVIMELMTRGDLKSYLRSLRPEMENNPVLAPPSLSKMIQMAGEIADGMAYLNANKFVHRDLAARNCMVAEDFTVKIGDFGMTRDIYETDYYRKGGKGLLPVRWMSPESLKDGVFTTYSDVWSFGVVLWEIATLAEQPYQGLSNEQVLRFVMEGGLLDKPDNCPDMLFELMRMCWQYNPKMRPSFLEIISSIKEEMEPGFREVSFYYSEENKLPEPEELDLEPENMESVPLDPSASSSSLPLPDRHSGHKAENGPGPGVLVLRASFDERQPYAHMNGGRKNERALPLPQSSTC
assay_comment: Inhibition of IGF1R at 10 uM
Activity calls are given as the source filed them. The calls are words filed in the database; no cut-off is given here.
test_readout: inhibition

entry_smiles	target_system	value_reported
Nc1cc(F)ccc1Nc1ccc2c(c1)Cc1ccccc1CC2=O	Insulin-like growth factor 1 receptor (Homo sapiens) (UniProt P08069)	inactive
O=C1Cc2ccccc2Cc2cc(NCc3ccccc3)ccc21	Insulin-like growth factor 1 receptor (Homo sapiens) (UniProt P08069)	inactive
Nc1ccccc1Nc1ccc2c(c1)Cc1ccccc1CC2=O	Insulin-like growth factor 1 receptor (Homo sapiens) (UniProt P08069)	inactive
Nc1cc(F)ccc1Nc1ccc2c(c1)Cc1ccccc1C(=O)C2	Insulin-like growth factor 1 receptor (Homo sapiens) (UniProt P08069)	inactive

---

assay_comment: Inhibition of p38 assessed as rate of ATF-2 phosphorylation by immunosorbent non-radioactive enzyme assay
Labels assigned by IC50 range: range 1: < 2000 nM; range 2: ≥ 2000 nM and < 3000 nM; range 3: ≥ 3000 nM

entry_smiles	discrete_label
Nc1ccccc1Nc1ccc2c(c1)Oc1ccccc1NC2=O	range 2
Nc1ccccc1Nc1ccc2c(c1)CCc1ccccc1C2=O	range 1
Nc1ccccc1Nc1ccc2c(c1)CC(=O)c1ccccc1C2	range 2
Nc1cc(F)ccc1Nc1ccc2c(c1)Cc1ccccc1CC2=O	range 1
O=C1Cc2ccc(Nc3ccccc3)cc2Cc2ccccc21	range 3
Nc1cc(F)ccc1Nc1ccc2c(c1)Cc1ccccc1C(=O)C2	range 3
Nc1ccccc1Nc1ccc2c(c1)Cc1ccccc1C(=O)C2	range 1
Nc1cc(F)ccc1Nc1ccc2c(c1)CC(=O)c1ccccc1C2	range 1
Nc1ccccc1Nc1ccc2c(c1)C(=O)Cc1ccccc1C2	range 3
Nc1cc(F)ccc1Nc1ccc2c(c1)Oc1ccccc1CC2=O	range 1
O=C1Cc2ccccc2Cc2cc(Nc3ccccc3)ccc21	range 1
